Every entry's value here was drawn from patent US20220009894A1.

- Target Or Test System: RORγt (Homo sapiens, UniProt P51449)
- Construct: The plasmid of pFN26A-RORγt-LBD and pG14.35 (Promega, Cat. No. E1370) were co-transfected into HEK 293 cells
- Procedure Summary: RORγt cellular reporter gene detection assay
- Test Conditions: HEK 293 cells co-transfected with pFN26A-RORγt-LBD and pG14.35, in presence of antagonist Ursolic acid, 24 hrs; top concentration 50 μM
Measured Parameter: pEC50
For clarity, pEC50 is expressed as the negative log10 of concentration in mol/L.

**Query** Please look up its pEC50: C/C(=C\c1ccc2c(c1)N(S(=O)(=O)c1cccc(C(F)(F)F)c1)C[C@@H]1CN(C[C@H](O)CO)CCN21)c1c(F)cccc1Cl
**Result** 6.54

**Query** Please look up its pEC50: CC1(C)C=C(c2ccc3c(c2)N(S(=O)(=O)c2cccc(C(F)(F)F)c2)C[C@@H]2CN(C[C@H](O)CO)CCN32)CC(C)(C)O1
**Result** 6.91

**Query** Please look up its pEC50: C/C(=C\c1ccc2c(c1)N(S(=O)(=O)c1cccc(C(F)(F)F)c1)C[C@@H]1CN(C(C#N)(CO)CO)CCN21)c1c(F)cccc1Cl
**Result** 6.14

**Query** Please look up its pEC50: O=S1(=O)CCN2c3ccc(-c4cc(F)cc(OC(F)F)c4)cc3N(S(=O)(=O)c3cccc(C(F)(F)F)c3)CC2C1 (stereo not shown)
**Result** 5.67

**Query** Please look up its pEC50: C[C@]1(OCCC(=O)O)CCN2c3ccc(-c4cc(F)cc(OC(F)F)c4)cc3N(S(=O)(=O)c3cccc(C(F)(F)F)c3)C[C@@H]2C1
**Result** 6.01

**Query** Please look up its pEC50: CC(=O)N1CCN2c3ccc(C4=CC(C)(C)OC(C)(C)C4)cc3N(S(=O)(=O)c3cccc(C(F)(F)F)c3)C[C@@H]2C1
**Result** 7.23

**Query** Please look up its pEC50: CC1(C)C=C(c2ccc3c(c2)N(S(=O)(=O)c2cccc(C(F)(F)F)c2)C[C@@H]2CN(C4COC4)CCN32)CC(C)(C)O1
**Result** 6.81

**Query** Please look up its pEC50: O=S(=O)(c1cccc(C(F)(F)F)c1)N1C[C@@H]2CN(C[C@H](O)CO)CCN2c2ccc(-c3cc(F)cc(OC(F)F)c3)cc21
**Result** 6.14

**Query** Please look up its pEC50: O=S(=O)(c1cccc(C(F)(F)F)c1)N1CCNc2ccc(-c3cc(F)cc(OC(F)F)c3)cc21
**Result** 6.79

**Query** Please look up its pEC50: COC(=O)CN1CCN2c3ccc(/C=C/c4c(Cl)cccc4C(F)(F)F)cc3N(S(=O)(=O)c3cccc(OC(F)(F)F)c3)C[C@@H]2C1
**Result** 6.55

**Query** Please look up its pEC50: N#Cc1cccc(-c2ccc3c(c2)N(S(=O)(=O)c2cccc(C(F)(F)F)c2)C[C@@H]2CN(CC(=O)O)CCN32)c1F
**Result** 5.45

**Query** Please look up its pEC50: CC(CO)(CO)N1CCN2c3ccc(-c4cc(F)cc(OC(F)F)c4)cc3N(S(=O)(=O)c3cccc(C(F)(F)F)c3)C[C@@H]2C1
**Result** 6.62

**Query** Please look up its pEC50: COC(=O)CN1CCN2c3ccc(/C=C/c4c(Cl)cccc4C(F)(F)F)cc3N(S(=O)(=O)c3cccc(C(F)(F)F)c3)C[C@@H]2C1
**Result** 6.43

----------
- Target Or Test System: RORγt-LBD (Homo sapiens)
- Sequence (P51449 269-508 limits assumed): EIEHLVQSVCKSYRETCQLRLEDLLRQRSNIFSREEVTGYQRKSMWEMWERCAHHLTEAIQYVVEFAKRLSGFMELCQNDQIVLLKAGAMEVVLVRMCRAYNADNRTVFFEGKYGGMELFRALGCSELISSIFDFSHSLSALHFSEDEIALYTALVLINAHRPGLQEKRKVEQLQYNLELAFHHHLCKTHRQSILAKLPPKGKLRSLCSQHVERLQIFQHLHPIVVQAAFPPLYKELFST
- Procedure Summary: Time-resolved fluorescence resonance energy-transfer assay (TR-FRET), co-activator peptide recruitment
- Format: biochemical
- Parameters: unit not given here
- Test Conditions: upper activation limit; His-RORγt-LBD, SRC peptide
Measured Parameter: TR-FRET Biochemical Amax
Give the figure only, with no unit attached.

**Query** So what TR-FRET Biochemical Amax did CC(=O)N1CCN2c3ccc(/C=C(\C)c4c(F)cccc4Cl)cc3N(S(=O)(=O)c3cccc(C(F)(F)F)c3)C[C@@H]2C1 get with RORγt-LBD (Homo sapiens)?
**Result** 0.83

**Query** So what TR-FRET Biochemical Amax did O=C(O)[C@H]1CCN2c3ccc(-c4cc(F)cc(OC(F)F)c4)cc3N(S(=O)(=O)c3cccc(C(F)(F)F)c3)C[C@@H]2C1 get with RORγt-LBD (Homo sapiens)?
**Result** 0.65

**Query** So what TR-FRET Biochemical Amax did C/C(=C\c1ccc2c(c1)N(S(=O)(=O)c1cccc(C(F)(F)F)c1)C[C@@H]1CN(C[C@H](O)CO)CCN21)c1c(F)cccc1Cl get with RORγt-LBD (Homo sapiens)?
**Result** 1.23

**Query** So what TR-FRET Biochemical Amax did COC(=O)CN1CCN2c3ccc(/C=C(\C)c4c(F)cccc4Cl)cc3N(S(=O)(=O)c3cccc(C(F)(F)F)c3)C[C@@H]2C1 get with RORγt-LBD (Homo sapiens)?
**Result** 1.04

**Query** So what TR-FRET Biochemical Amax did O=C(O)CN1CCN2c3ccc(/C=C/c4c(Cl)cccc4C(F)(F)F)cc3N(S(=O)(=O)c3cccc(C(F)(F)F)c3)C[C@@H]2C1 get with RORγt-LBD (Homo sapiens)?
**Result** 1.01

**Query** So what TR-FRET Biochemical Amax did O=S(=O)(c1cccc(C(F)(F)F)c1)N1C[C@@H]2CC(O)CCN2c2ccc(-c3cc(F)cc(OC(F)F)c3)cc21 (stereo partly shown) get with RORγt-LBD (Homo sapiens)?
**Result** 0.69

**Query** So what TR-FRET Biochemical Amax did CC(CO)(CO)N1CCN2c3ccc(-c4cc(F)cc(OC(F)F)c4)cc3N(S(=O)(=O)c3cccc(C(F)(F)F)c3)C[C@@H]2C1 get with RORγt-LBD (Homo sapiens)?
**Result** 0.65

**Query** So what TR-FRET Biochemical Amax did C/C(=C\c1ccc2c(c1)N(S(=O)(=O)c1cccc(C(F)(F)F)c1)C[C@@H]1CN(C(C#N)(CO)CO)CCN21)c1c(F)cccc1Cl get with RORγt-LBD (Homo sapiens)?
**Result** 0.96

**Query** So what TR-FRET Biochemical Amax did N#CC1(N2CCN3c4ccc(/C=C/c5c(Cl)cccc5C(F)(F)F)cc4N(S(=O)(=O)c4cccc(C(F)(F)F)c4)C[C@@H]3C2)CCC1 get with RORγt-LBD (Homo sapiens)?
**Result** 0.67

**Query** So what TR-FRET Biochemical Amax did CC1(C)C=C(c2ccc3c(c2)N(S(=O)(=O)c2cc(C(F)(F)F)cnc2OCCO)C[C@@H]2CNCCN32)CC(C)(C)O1 get with RORγt-LBD (Homo sapiens)?
**Result** 0.72

**Query** So what TR-FRET Biochemical Amax did N#CCC(=O)N1CCN2c3ccc(-c4cc(F)cc(OC(F)F)c4)cc3N(S(=O)(=O)c3cccc(C(F)(F)F)c3)C[C@@H]2C1 get with RORγt-LBD (Homo sapiens)?
**Result** 0.86

**Query** So what TR-FRET Biochemical Amax did COC(=O)CC[C@H]1CN(S(=O)(=O)c2cccc(C(F)(F)F)c2)c2cc(/C=C(\C)c3c(F)cccc3Cl)ccc2N1C get with RORγt-LBD (Homo sapiens)?
**Result** 1.07

**Query** So what TR-FRET Biochemical Amax did CC1(C)C=C(c2ccc3c(c2)N(S(=O)(=O)c2cccc(C(F)(F)F)c2)C[C@@H]2CN(C[C@@H](O)CO)CCN32)CC(C)(C)O1 get with RORγt-LBD (Homo sapiens)?
**Result** 1.01

----------
- Target Or Test System: RORγt-LBD (Homo sapiens, UniProt P51449)
- Procedure Summary: Time-resolved fluorescence resonance energy-transfer assay (TR-FRET), co-activator peptide recruitment
- Type: biochemical
- Set-up: unit not given here
- Test Conditions: upper activation limit; His-RORγt-LBD, SRC peptide
Give Met when the value for TR-FRET Biochemical Amax is at least 0.8. Give Not met when it is less.

**Query** Hello, I need to know if O=S(=O)(c1cccc(C(F)(F)F)c1)N1C[C@@H]2CN(C[C@H](O)CO)CCN2c2ccc(-c3cc(F)cc(OC(F)F)c3)cc21 has measured TR-FRET Biochemical Amax not below 0.8. Thanks!
**Result** Not met

**Query** Hello, I need to know if CC1(C)C=C(c2ccc3c(c2)N(S(=O)(=O)c2cccc(C(F)(F)F)c2)C[C@@H]2CN(C4COC4)CCN32)CC(C)(C)O1 has measured TR-FRET Biochemical Amax not below 0.8. Thanks!
**Result** Met

**Query** Hello, I need to know if C/C(=C\c1ccc2c(c1)N(S(=O)(=O)c1cccc(C(F)(F)F)c1)C[C@@H]1CN(C(CO)(CO)C(N)=O)CCN21)c1c(F)cccc1Cl has measured TR-FRET Biochemical Amax not below 0.8. Thanks!
**Result** Met

**Query** Hello, I need to know if CC(C)OC(=O)OCOC(=O)CN1CCN2c3ccc(/C=C/c4c(Cl)cccc4C(F)(F)F)cc3N(S(=O)(=O)c3cccc(C(F)(F)F)c3)C[C@@H]2C1 has measured TR-FRET Biochemical Amax not below 0.8. Thanks!
**Result** Not met

**Query** Hello, I need to know if C/C(=C\c1ccc2c(c1)N(S(=O)(=O)c1cccc(C(F)(F)F)c1)C[C@@H]1CN(C3(C(N)=O)CCC3)CCN21)c1c(F)cccc1Cl has measured TR-FRET Biochemical Amax not below 0.8. Thanks!
**Result** Met

**Query** Hello, I need to know if O=C(O)CN1CCN2c3ccc(/C=C/c4c(Cl)cccc4C(F)(F)F)cc3N(S(=O)(=O)c3cccc(OC(F)(F)F)c3)C[C@@H]2C1 has measured TR-FRET Biochemical Amax not below 0.8. Thanks!
**Result** Not met
